# tested.system: T1, Anti-PSMA Fab (SEQ ID NOs: 19, 20)
# T1 construct: In the phage ELISA the Fab was biotinylated and captured on neutravidin coated plates; also called 006 PSMA Fab
# test.description: phage binding ELISA on captured PSMA Fab, wells pre-incubated with PSMA antigen as competitor
Where no end group is shown, it is not given here.
Recorded Anti-PSMA Fab signal in the presence of PSMA by entry
Reply with just the number.

IVKWCVPEWMCEGT (cysteine pairing not given here; also: fused to phage pIII, pIII sequence and linker not given here, Clonal phage of the Peptide-180 library) [Phage-2090] :: 0.0687

Summary for this binder, VEKWCIPQWMCAEM (cysteine pairing not given here; also: fused to phage pIII, pIII sequence and linker not given here, Clonal phage of the Peptide-180 library) [Phage-2088] : Anti-PSMA Fab signal in the presence of PSMA is 0.0696
